Hi there, I'd appreciate the recorded Emax for every entry that follows.
# measuredOn: F508delCFTR (Homo sapiens, UniProt P13569, DEL508-508)
# Construct: expressed in transfected cells; host or cells: CFBE41o- human lung-derived epithelial cells (CFBE4lo-F508delCFTR-HRP), doxycycline-inducible
# Sequence (P13569 with tags, fused parts or gaps DEL508-508): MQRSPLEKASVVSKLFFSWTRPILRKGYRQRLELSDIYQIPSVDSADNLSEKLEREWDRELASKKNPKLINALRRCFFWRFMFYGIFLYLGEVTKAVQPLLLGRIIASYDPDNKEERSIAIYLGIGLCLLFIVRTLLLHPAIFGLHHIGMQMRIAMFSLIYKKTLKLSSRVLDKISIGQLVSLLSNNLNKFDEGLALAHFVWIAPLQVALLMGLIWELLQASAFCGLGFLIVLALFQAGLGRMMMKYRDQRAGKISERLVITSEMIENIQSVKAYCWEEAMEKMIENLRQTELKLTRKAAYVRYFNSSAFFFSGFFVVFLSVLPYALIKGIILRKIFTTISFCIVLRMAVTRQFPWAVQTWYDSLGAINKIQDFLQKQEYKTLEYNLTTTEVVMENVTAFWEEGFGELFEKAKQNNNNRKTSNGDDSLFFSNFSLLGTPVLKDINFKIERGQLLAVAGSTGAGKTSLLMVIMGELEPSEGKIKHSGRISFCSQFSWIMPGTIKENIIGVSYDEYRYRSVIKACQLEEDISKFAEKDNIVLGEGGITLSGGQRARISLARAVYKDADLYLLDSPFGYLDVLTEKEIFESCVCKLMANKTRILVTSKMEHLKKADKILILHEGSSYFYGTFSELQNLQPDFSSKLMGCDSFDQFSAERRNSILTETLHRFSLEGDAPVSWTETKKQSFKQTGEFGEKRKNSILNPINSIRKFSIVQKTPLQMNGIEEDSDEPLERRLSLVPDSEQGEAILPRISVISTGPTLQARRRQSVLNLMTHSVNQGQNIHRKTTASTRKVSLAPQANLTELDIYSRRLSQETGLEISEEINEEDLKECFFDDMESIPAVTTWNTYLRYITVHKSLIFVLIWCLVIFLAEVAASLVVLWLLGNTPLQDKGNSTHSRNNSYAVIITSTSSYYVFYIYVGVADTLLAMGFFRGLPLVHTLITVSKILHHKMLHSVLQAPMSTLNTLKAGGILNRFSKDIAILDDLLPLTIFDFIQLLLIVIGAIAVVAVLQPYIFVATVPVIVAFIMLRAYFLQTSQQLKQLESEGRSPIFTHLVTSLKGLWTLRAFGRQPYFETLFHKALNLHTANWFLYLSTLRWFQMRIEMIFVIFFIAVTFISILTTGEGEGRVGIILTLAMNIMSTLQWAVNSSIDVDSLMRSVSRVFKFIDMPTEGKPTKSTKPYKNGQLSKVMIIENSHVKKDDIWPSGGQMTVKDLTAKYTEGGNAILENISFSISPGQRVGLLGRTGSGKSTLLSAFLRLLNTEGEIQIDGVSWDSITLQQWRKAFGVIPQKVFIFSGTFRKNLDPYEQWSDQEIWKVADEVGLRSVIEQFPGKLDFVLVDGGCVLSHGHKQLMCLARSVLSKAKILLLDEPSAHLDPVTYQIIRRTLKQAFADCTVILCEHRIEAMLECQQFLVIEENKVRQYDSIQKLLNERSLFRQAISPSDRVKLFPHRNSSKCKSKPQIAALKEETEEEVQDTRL
# procedureSummary: Cell Surface Expression-Horse Radish Peroxidase (CSE-HRP) Assay;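 also: percent of the 2 µM on-plate positive control corrector response above DMSO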
# Format: cell-based
# conditionsUsed: without co-corrector; maximum at any tested concentration, normalized to on-plate positive control; read-out: Maximum % activity (without co-corrector)
# Experimental: Cell Surface Expression-Horse Radish Peroxidase (CSE-HRP) Assay The development was achieved by expressing the F508delCFTR mutation along with a horseradish peroxidase (HRP) in the fourth exofacial loop, and then measuring the HRP activity using luminescence readout from these cells, CFBE4lo-F508delCFTR-HRP, that were incubated overnight with the test corrector compounds, either without or with the co-corrector. […] The raw counts from the experiment were analyzed using Accelrys® Assay Explorer v3.3. […]

The examples below pair each entry with its known result.
| compound | measuredOn | Emax |
| --- | --- | --- |
| COc1cc(C(F)(F)F)cc(N[C@@H]2[C@@H](C(C)(C)C)[C@H](C(=O)O)N(C(=O)C3CCCCC3)[C@@H]2c2ccccc2)n1 (racemic) [Example 2] | F508delCFTR (Homo sapiens, UniProt P13569, DEL508-508) | < 100% |
| COc1ccc(C(F)(F)F)cc1CN[C@H]1[C@H](C(C)(C)C)[C@@H](C(=O)O)N(C(=O)[C@@H](OC)c2ccccc2)[C@H]1c1ccccc1 [Example I-34] | F508delCFTR (Homo sapiens, UniProt P13569, DEL508-508) | > 200% |
| COc1ccc(C(C)(C)C)cc1CN[C@H]1[C@H](C(C)(C)C)[C@@H](C(=O)O)N(C(=O)[C@H]2CCCCO2)[C@H]1c1cccnc1N(C)C [Example 19] | F508delCFTR (Homo sapiens, UniProt P13569, DEL508-508) | > 200% |

I would be grateful if you could provide Emax for each of the following entries.
1. COc1ccc(CC2CCCCC2)cc1CN[C@H]1[C@H](C(C)(C)OC)[C@@H](C(=O)O)N(C(=O)C2CCCCC2)[C@H]1c1ccccc1 [Example I-118]
2. COc1nc2ccccc2cc1CN[C@H]1[C@H](C(C)(C)C)[C@@H](C(=O)O)N(C(=O)[C@@H]2CCCO2)[C@H]1c1ccccc1C(C)C [Example 100]
3. COc1ccc(C(C)(C)C)cc1N[C@H]1[C@H](C(C)(C)C)[C@@H](C(=O)O)N(C(=O)C2CCCCC2)[C@H]1c1ccccc1 [Example I-82]
4. COc1ccc(C(C)(C)C(F)(F)F)cc1CN[C@H]1[C@H](C(C)(C)C)[C@@H](C(=O)O)N(C(=O)C2CCCCC2)[C@H]1c1ccccc1 [Example I-213]
5. COc1ncc(C(F)(F)F)cc1N[C@H]1[C@H](C(C)(C)C)[C@@H](C(=O)O)N(C(=O)C2CCCCC2)[C@H]1c1ccccc1 [Example 114]
6. COc1cccc([C@@H]2[C@H](NCc3cc(C(F)(F)F)ccc3OC)[C@@H](C(C)(C)C)[C@H](C(=O)O)N2C(=O)C2CCCCO2)n1 (mixture of isomers) [Example I-23]

Reply |
1. > 200%
2. > 200%
3. < 100%
4. > 200%
5. < 100%
6. < 100%
